Parameter 'readout' = GI50; parameter 'system' = HCT-15.
reportedProperty: GI50 (µM)

compound	measuredOn	unitDescriptor	valueOperator	measuredValue
COc1c(O)c(OC)c(C(=O)/C=C/c2ccccc2)c(O)c1OC	HCT-15	µM	=	28.8
COc1ccc2nc3ccccc3c(NCCCCCCN(C)CCCl)c2c1	HCT-15	µM	=	0.221
COc1ccc(OC)c(/C=N/N=C2\C(=O)Nc3c(Cl)cc(Cl)cc32)c1	HCT-15	µM	=	36.6
COC(=O)c1ccc(COC(=O)N2C=CCC2C(=O)O)cc1 (stereo unspecified)	HCT-15	µM	>	100
CCCCCCCCCCCCCCNCC(OCC)OCC	HCT-15	µM	=	8.47
N/N=C1\C(=O)N(C2CCCCC2)C(=O)C1C(=O)NC1CCCCC1 (stereo unspecified)	HCT-15	µM	>	100

----------
# Test system: SW-620
# experimentNotes: NCI tumour cell line growth inhibition, 48 h
Activity calls are given as the source filed them. Cut-off read from the data, not from the text of the source: active = GI50 up to about 1.1 µM and inactive = higher.
Catalogue of compounds with associated GI50
reportedProperty: GI50

compound	measuredValue
S=c1[nH]c2c(Cl)c(Cl)c(Cl)c(Cl)c2[nH]1	19.8 µM (inactive)
CC1(C)CC(=O)C(C(=O)Nc2cccs2)=C(O)C1	38.8 µM (inactive)
COC(=O)N/N=C(\c1ccccc1)c1ccc(OC)cc1	> 100 µM (inactive)
O=C(CNc1nccs1)Nn1cnc2ccc(S(=O)(=O)Nc3nccs3)cc2c1=O	> 100 µM (inactive)
CCCCCCCCCCCCCCCCCCN(C)C(COC)COP(=O)([O-])OCC[N+](C)(C)C (stereo unspecified)	6.47 µM (inactive)
Cc1ccc(C2=C(Cl)C(=O)C(c3ccc(C)cc3)=C(Cl)C2=O)cc1	> 100 µM (inactive)
CC1=C2C(O)C(C(C)C(=O)NC(C)C)CCC2(C)C=CC1=O (stereo unspecified)	> 100 µM (inactive)
COC(=O)C(C(=O)C(=O)Nc1nnc(S)[nH]1)c1csc(-n2nc(-c3ccccc3)cc2-c2ccccc2)n1 (stereo unspecified)	> 100 µM (inactive)
CCOc1cc(C2SCC(=O)N2c2ccc(Oc3ccc(Cl)cc3)c(Cl)c2)ccc1O (stereo unspecified)	17 µM (inactive)
Oc1ccc2ccccc2c1/N=N/c1ccccc1	> 100 µM (inactive)
O=C1CC(NC(=O)C(F)(F)F)c2c1csc2Br (stereo unspecified)	31.8 µM (inactive)

----------
# Test system: OVCAR-4
# experimentNotes: NCI tumour cell line growth inhibition, 48 h
The source made the active and inactive calls. Rule as the data show it: active = GI50 up to about 1.1 µM and inactive = higher. *1 amine or outer side, *2 acyl side, *3 side chain or, on linkers, in order; H or OH if unused. Where a SMILES comes first, the peptide text is derived from it. Bridges are numbered along the chain shown (N, C = ends). Roman numbers before positions name the chains, in order. [ ]: non-standard residue; d: D form. Actinocin(9to1) = Cc1c2oc3c(C)ccc(C(=O)[*:1])c3nc-2c(C(=O)[*:2])c(N)c1=O; Hyp = O=C(O)[CH]1C[CH](O)CN1; NMeV = CN[CH](C(=O)O)C(C)C; Sar = CNCC(=O)O
Outcome codes: active, inactive

compound	classAssignment
CC(=O)c1cc2c(s1)C(=O)c1ccsc1C2=O	inactive
CCOC(=O)CCC1(C(=O)O[C@@H]2C[C@H](C)CC[C@H]2C(C)C)CCCCC1=O (some centres not stated)	inactive
CC(=O)OC1CC2(C)C(OC(C)=O)CC1C2(C)C (configuration not stated)	inactive
CCN(CC)CCNC(=O)c1nn(-c2ccc(Cl)cc2)c2c1CCc1cc(OC)ccc1-2	inactive
O=CC12c3ccccc3C(c3ccccc31)C1C(=O)NC(=O)C12 (configuration not stated)	inactive
C[n+]1c(-c2ccc(/C=N/NC(=O)C(=O)N/N=C/c3ccc(-c4cn5ccsc5[n+]4C)cc3)cc2)cn2ccsc21	inactive
CC(=O)O[C@H]1[C@@H]2[C@@H]3[C@@H](C[C@H]1C)[C@@H](C)CO[C@@]1(C)CC/C=C(/C)C[C@@H]2O[C@@H]31	inactive
COC(=O)C1Cc2c([nH]c3ccccc23)C(C2CCCCC2)N1 (configuration not stated)	inactive
C/N=C(\N=c1/ss/c(=N\C)n1C)N(C)C.[O-][Cl+3]([O-])([O-])O	inactive
CC(=O)O/N=C1\C=Cc2c(no[n+]2[O-])C1=O	inactive
COc1ccccc1-c1nc(-c2ccccc2O)n[nH]1	inactive
O=C1/C(=C/c2cccnc2)SC(=S)N1Cc1ccco1	inactive
COc1ccc(OC)c(/C=N/N=C2\C(=O)Nc3c(Cl)cc(Cl)cc32)c1	inactive
CCOc1cc(C2SCC(=O)N2c2ccc(Oc3ccc(Cl)cc3)c(Cl)c2)ccc1O (configuration not stated)	inactive
O=C(O)CNC(=O)c1ccccc1O	inactive
CCOC(=O)c1cc2c([nH]1)c(OC(C)=O)cc1c2ccn1Cc1ccccc1	inactive
COc1ccc2c(c1)CCC1C3(CCCC21C)OCCO3 (configuration not stated)	inactive
CC1CC(=O)Nc2ccc(/N=N/N(C)C)cc2N1C=O (configuration not stated)	inactive
Cc1cc(C)nc(NS(=O)(=O)c2ccc(NNC(=O)c3cccc4c(=O)c5ccccc5[nH]c34)cc2)n1	inactive
CC1(C)OCC([C@H]2CC23SCCCS3)O1 (some centres not stated)	inactive
Cc1c2oc3c(C)ccc(C(=O)NC4C(=O)NC(C(C)C)C(=O)N5CC(O)CC5C(=O)N(C)CC(=O)N(C)C(C(C)C)C(=O)OC4C)c3nc-2c(C(=O)NC2C(=O)NC(C(C)C)C(=O)N3CC(O)CC3C(=O)N(C)CC(=O)N(C)C(C(C)C)C(=O)OC2C)c(N)c1=O (configuration not stated) (I: TV[Hyp][Sar][NMeV] / II: TV[Hyp][Sar][NMeV]; ester I:1-I:C, II:1-II:C; linker I:N-II:N via Actinocin(9to1); configuration not given here)	active
NCCCN1CCN(CCCNc2ccc3nnn4c5ccccc5c(=O)c2c34)CC1	inactive
Cc1ccc(S(=O)(=O)NC2C(=O)c3ccccc3C(=O)C2n2ccnc2)cc1 (configuration not stated)	inactive
Cc1nc2c(n1CCO)C(=O)c1ccccc1C2=O	inactive
Cc1ccc(NC(=O)CCC/C(CC(=O)c2ccc(Br)cc2)=N/NC(=O)CC#N)cc1	inactive
O=C(C1OC1c1ccc(F)cc1)C12CC3CC(CC(C3)C1)C2 (configuration not stated)	inactive
O=[N+]([O-])c1ccc(NC(=S)Nc2ccccn2)cc1	inactive
Cc1cc(OC2OC(CO)C(O)C(O)C2O)ccc1O (configuration not stated)	inactive
CCOc1ccc(/C(C=O)=C(\Cl)c2ccc(OC)cc2)cc1	inactive
CC(=O)O[C@H]1C[C@H]2[C@@H]([C@H](OC(C)=O)C[C@@H]3CC4(CC[C@@]32C)OOC2(CCCCC2)OO4)[C@@H]2CC[C@H]([C@H](C)CCC(=O)O)[C@@]12C	inactive
Cc1ccc(-n2nc(C(OC3OC(CO)C(O)C(O)C3O)C(O)CO)c3nc4cc(C)c(C)cc4nc32)cc1 (configuration not stated)	inactive
COS(C)(=O)=O	inactive
CC(C)=CCc1[nH]c2ccccc2c1C1=C(O)C(=O)C(c2c(CC=C(C)C)[nH]c3ccccc23)=C(O)C1=O	inactive
Cc1cn(C2CC(N)C(C(=O)NCC(=O)O)O2)c(=O)[nH]c1=O (configuration not stated)	inactive
COc1ccc(N2C(=O)C3c4[nH]c5cccc(Cl)c5c4C4CCC(C(C)(C)C)CC4C3C2=O)cc1 (configuration not stated)	inactive
Nc1ncnc2c1ncn2C1CC(O)C(CO)O1 (configuration not stated)	inactive
CC1OC(O)C(O)C(O)C1O (configuration not stated)	inactive
